- measurement target: tubulin (Sus scrofa, UniProt P02550+P02554)
- Construct: purchased Cytoskeleton, Denver, CO, USA
- Sequence (P02554 whole entry): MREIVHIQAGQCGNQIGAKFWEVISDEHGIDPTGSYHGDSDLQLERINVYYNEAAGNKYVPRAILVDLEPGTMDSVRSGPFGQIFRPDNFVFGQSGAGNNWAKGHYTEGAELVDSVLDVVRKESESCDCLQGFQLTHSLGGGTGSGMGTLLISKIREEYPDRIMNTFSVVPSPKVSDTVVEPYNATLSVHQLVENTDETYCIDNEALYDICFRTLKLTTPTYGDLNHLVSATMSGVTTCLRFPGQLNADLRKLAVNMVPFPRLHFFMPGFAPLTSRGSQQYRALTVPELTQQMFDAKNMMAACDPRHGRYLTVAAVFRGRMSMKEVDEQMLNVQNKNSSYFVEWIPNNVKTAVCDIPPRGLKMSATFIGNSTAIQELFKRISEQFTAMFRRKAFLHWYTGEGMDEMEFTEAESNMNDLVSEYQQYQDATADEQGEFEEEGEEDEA
- Sequence (P02550 whole entry): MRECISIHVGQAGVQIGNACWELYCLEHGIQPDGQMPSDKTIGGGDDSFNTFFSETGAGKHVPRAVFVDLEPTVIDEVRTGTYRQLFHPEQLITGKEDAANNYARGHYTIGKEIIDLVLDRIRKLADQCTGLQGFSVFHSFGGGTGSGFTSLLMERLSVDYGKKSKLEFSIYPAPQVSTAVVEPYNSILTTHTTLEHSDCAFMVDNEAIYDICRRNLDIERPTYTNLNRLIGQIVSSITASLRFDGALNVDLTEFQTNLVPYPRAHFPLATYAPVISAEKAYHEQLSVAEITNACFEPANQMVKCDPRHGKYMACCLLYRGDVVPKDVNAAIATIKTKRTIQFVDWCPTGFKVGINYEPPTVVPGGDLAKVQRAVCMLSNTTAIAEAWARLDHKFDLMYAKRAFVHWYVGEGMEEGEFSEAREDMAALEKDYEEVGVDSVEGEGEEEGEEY
- experiment notes: Cell free tubulin polymerization assay (fluorescence-based)
- Format: biochemical
- test settings: Vmax normalised to control, read-out: tubulin polymerization inhibition IC50
result type: pIC50
The quantity pIC50 is defined as the negative base-10 logarithm of the molar concentration.

Recorded pIC50 (compound COc1cc(Cn2cc(-c3cccs3)ccc2=S)cc(OC)c1OC [Compound 16b] ): 4.43

---

- experiment notes: WST-1 assay on non-tumor cells (selectivity)
- Assay type: cell-based, human
- test settings: human, primary human dermal fibroblasts (HDF); at 500 µM
- Method: The A375 malignant melanoma cell line (ECACC 88113005, Salisbury, UK) was procured from the European Collection of Authenticated Cell Cultures (ECACC). […] The evaluation of the antiproliferative activity of the compounds was performed using the Cell Proliferation Reagent WST-1 assay (Roche, Germany). […] The absorbance was subsequently measured at 450 nm with background correction at 620 nm using a microplate reader (Infinite 200 Pro, Tecan, Männedorf, Switzerland). […]
result type: viability at 48 h, 500 µM (%)
// note: answer is a bare numeric in %

Recorded viability at 48 h, 500 µM (compound `CN1C=C(c2ccccc2)[C@@H](c2ccccc2)[C@H](C(=O)c2ccccc2)C1=S` ): 85.9
